Test system: c-Myc
Assay name: c-Myc immunofluorescence assay
Format: cell-based, human
Run parameters: A549 cells, 24 hours treatment, anti-c-Myc immunofluorescence

{"columns": ["Molecule", "Myc Efficacy (−LogEC50)"],
 "data": [
  ["Cc1cccc(-c2cn3c(n2)sc2cc(C(=O)NCCCN4CCOCC4)ccc23)c1 [compound 134]", "+ (+ >3 and <5)"],
  ["CNC(=O)c1ccc(-c2cn3c(n2)sc2cc(C(=O)NCCCN4CCCCC4)ccc23)cc1 [compound 174]", "+++ (+++ ≥6)"],
  ["CNC(=O)c1ccc(-c2cn3c(n2)sc2cc(C(=O)NC(C)C4CCOCC4)ccc23)cc1 (centres unmarked) [compound 234]", "+ (+ >3 and <5)"],
  ["O=C(NCCCN1CCC(F)CC1)c1ccc2c(c1)sc1nc(-c3cc(F)c(C4CCCN4)c(Cl)c3)cn12 (centres unmarked) [compound 485]", "+++ (+++ ≥6)"],
  ["CCN(CCCNC(=O)c1ccc2c(c1)sc1nc(-c3cccc(C)c3)cn12)CC(F)(F)F [compound 177]", "+ (+ >3 and <5)"],
  ["NCc1ccc(-c2cn3c(n2)sc2cc(C(=O)NCCCN4CCCCC4)ccc23)c(Cl)c1 [compound 369]", "+++ (+++ ≥6)"],
  ["CN1CCC(NC(=O)c2ccc3c(c2)sc2nc(-c4ccc(C5COCCN5)cc4F)cn23)CC1 (centres unmarked) [Compound 517]", "+++ (+++ ≥6)"],
  ["CN1CCC(NC(=O)c2ccc3c(c2)sc2nc(-c4ccc(C5CCNC5)cc4F)cn23)CC1 (centres unmarked) [Compound 505]", "+++ (+++ ≥6)"]
]}

* * *

Test system: c-Myc
Assay name: c-Myc immunofluorescence assay
Format: cell-based, human
Run parameters: A549 cells, 24 hours treatment, anti-c-Myc immunofluorescence

{"columns": ["Compound", "Myc Efficacy (−LogEC50)"],
 "data": [
  ["NCc1ccc(-c2cn3c(n2)sc2cc(C(=O)NCCCN4CCCCC4)ccc23)cc1C(F)F", "+++ (+++ ≥6)"],
  ["Cc1cccc(-c2cn3c(n2)sc2cc(C(=O)NCCCN4CCC(F)CC4)ccc23)c1", "++ (++ ≥5 and <6)"],
  ["COc1cc(-c2cn3c(n2)sc2cc(C(=O)NCCCN4CCC(F)CC4)ccc23)c(F)cc1C1CCCN1 (stereo not drawn)", "++ (++ ≥5 and <6)"],
  ["CCN(CC)CCCNC(=O)c1ccc2c(c1)sc1nc(-c3ccc(OC)cc3)cn12", "++ (++ ≥5 and <6)"],
  ["O=C(NC1CCOCC1)c1ccc2c(c1)sc1nc(-c3ccc([C@H]4C[C@H](O)CN4)cc3F)cn12 (relative stereo)", "+++ (+++ ≥6)"],
  ["CNC(=O)c1ccc(-c2cn3c(n2)sc2cc(C(=O)NC4CC4OC)ccc23)cc1 (stereo not drawn)", "+ (+ >3 and <5)"],
  ["O=C(NCCCN1CCC(F)CC1)c1ccc2c(c1)sc1nc(-c3ccc(C4(O)COC4)cc3F)cn12", "+++ (+++ ≥6)"],
  ["NC(=O)c1ccc2c(c1)sc1nc(-c3ccc([C@@H]4C[C@H](O)CN4)cc3F)cn12", "++ (++ ≥5 and <6)"],
  ["CN1CCC(NC(=O)c2ccc3c(c2)sc2nc(-c4ccc([C@@H]5C[C@H](O)CN5)cc4F)cn23)CC1 [Compound 522S]", "+++ (+++ ≥6)"],
  ["CNC(=O)c1ccc(-c2cn3c(n2)sc2cc(C(=O)NCC4CCN(C)C4)ccc23)cc1 (stereo not drawn)", "− (− ≤3)"],
  ["CCN(CC)CCCNC(=O)c1ccc2c(c1)sc1nc(N3CCOCC3)cn12", "− (− ≤3)"],
  ["CCN1CCC(CNC(=O)c2ccc3c(c2)sc2nc(-c4ccc(C(=O)NC)cc4)cn23)CC1", "− (− ≤3)"],
  ["O=C(NCCCN1CCC(F)CC1)c1ccc2c(c1)sc1nc(-c3ccc(C4CC(F)(F)CN4)cc3F)cn12 (stereo not drawn)", "+++ (+++ ≥6)"],
  ["CNC(=O)c1ccc(-c2cn3c(n2)sc2cc(C(=O)NC4CCNCC4)ccc23)cc1", "++ (++ ≥5 and <6)"],
  ["CCN(CC)CCCNC(=O)c1ccc2c(c1)sc1nc(-c3ccc(C(=O)NC4CCNC4)cc3)cn12 (stereo not drawn)", "+ (+ >3 and <5)"]
]}

* * *

Tested on: c-Myc
Assay name: c-Myc immunofluorescence assay
Format: cell-based, human
Run parameters: A549 cells, 24 hours treatment, anti-c-Myc immunofluorescence
Where a name gives a salt, the structure may show the parent alone.

{"columns": ["Compound", "Myc Efficacy (−LogEC50)"],
 "data": [
  ["O=C(NCCCN1CCCCC1)c1ccc2c(c1)sc1nc(-c3ccc([C@@H]4CCCN4)cc3F)cn12", "+++ (+++ ≥6)"],
  ["NCc1c(F)cc(-c2cn3c(n2)sc2cc(C(=O)NCCCN4CCCCC4)ccc23)cc1Cl", "++ (++ ≥5 and <6)"],
  ["CCN(CC)CCCNC(=O)c1ccc2c(c1)sc1nc(-c3cccc(N4CCCC4)c3)cn12", "++ (++ ≥5 and <6)"],
  ["CNC(=O)c1ccc(-c2cn3c(n2)sc2cc(NC(=O)C4CCNCC4)ccc23)c(F)c1", "++ (++ ≥5 and <6)"],
  ["CCN(CC)CCCNC(=O)c1ccc2c(c1)sc1nc(-c3ccc(C4(N)CC4)cc3)cn12", "++ (++ ≥5 and <6)"],
  ["O=C(NCCCN1CCC(F)CC1)c1ccc2c(c1)sc1nc(-c3ccc(-c4ccn[nH]4)cc3F)cn12", "++ (++ ≥5 and <6)"],
  ["Cc1ccc(-c2cn3c(n2)sc2cc(C(=O)NC[C@@H]4CCNC4)ccc23)cc1 [compound 116, formate]", "++ (++ ≥5 and <6)"],
  ["CO[C@H]1CN[C@@H](c2ccc(-c3cn4c(n3)sc3cc(C(=O)NCCCN5CCC(F)CC5)ccc34)c(F)c2)C1 (relative stereo)", "+++ (+++ ≥6)"]
]}

* * *

System: c-Myc
Assay name: c-Myc immunofluorescence assay
Format: cell-based, human
Run parameters: A549 cells, 24 hours treatment, anti-c-Myc immunofluorescence

{"columns": ["Compound", "Myc Efficacy (−LogEC50)"],
 "data": [
  ["O=C(NCCCN1CCC(F)CC1)c1ccc2c(c1)sc1nc(-c3ccc(C4COCCN4)cc3F)cn12 (stereo not shown) [Compound 481]", "+++ (+++ ≥6)"],
  ["CCN(CC)CCCNC(=O)c1ccc2c(c1)sc1nc(-c3ccc(CO)cc3)cn12 [compound 277]", "++ (++ ≥5 and <6)"],
  ["Cc1cc(-c2cn3c(n2)sc2cc(C(=O)NCCCN4CCCCC4)ccc23)ccc1CN [compound 381]", "+++ (+++ ≥6)"],
  ["CCN(CC)CCCNC(=O)c1ccc2c(c1)sc1nc(-c3cccc(F)c3)cn12 [compound 130]", "++ (++ ≥5 and <6)"],
  ["CNC(=O)c1ccc(-c2cn3c(n2)sc2cc(C(=O)NCC[C@H](C)N)ccc23)cc1 [compound 200]", "+ (+ >3 and <5)"],
  ["NC(=O)c1ccc2c(c1)sc1nc(-c3ccc(C4CC(C(F)F)CN4)cc3F)cn12 (stereo not shown) [compound 540]", "+++ (+++ ≥6)"],
  ["CCN(CC)CCCNC(=O)c1ccc2c(c1)sc1nc(-c3ccc(C(=O)NC4CCNCC4)cc3)cn12 [compound 287]", "+ (+ >3 and <5)"],
  ["O=C(NCCCN1CCC(F)CC1)c1ccc2c(c1)sc1nc(-c3ccc(C4CC(C(F)F)CN4)cc3F)cn12 (stereo not shown) [Compound 542]", "+++ (+++ ≥6)"],
  ["CNC(=O)c1ccc(-c2cn3c(n2)sc2cc(C(=O)NC4CCCCC4N)ccc23)cc1 (stereo not shown) [compound 205]", "+ (+ >3 and <5)"]
]}

* * *

Tested on: c-Myc
Assay name: c-Myc immunofluorescence assay
Type: cell-based, human
Run parameters: A549 cells, 24 hours treatment, anti-c-Myc immunofluorescence
Method: A549 human non-small cell lung carcinoma cells were treated for 24 hours with increasing compound concentration, cells were fixed and stained with a nuclei stain (DAPI) and anti-c-Myc fluorescent antibody. The c-Myc signal was quantified by image analysis, and data was exported and analyzed using TIBCO Spotfire® (TIBCO Corporation). […] Cell images were taken with Operetta (Perkin Elmer, USA), a wide-field fluorescence microscope at 20× magnification. […]
Where a name gives a salt, the structure may show the parent alone.

{"columns": ["Compound", "Myc Efficacy (−LogEC50)"],
 "data": [
  ["NCc1ccc(-c2cn3c(n2)sc2cc(C(=O)NCCCN4CCCCC4)ccc23)c(F)c1", "+++ (+++ ≥6)"],
  ["CNC(=O)c1cc2sc3nc(-c4ccc(C5CCCN5)cc4F)cn3c2cn1 (centres unmarked)", "+++ (+++ ≥6)"],
  ["Cc1c(-c2ccc([C@H]3CCCN3)cc2F)nc2sc3cc(C(=O)NCCCN4CCC(F)CC4)ccc3n12 [Compound 464R, dihydrochloride]", "+++ (+++ ≥6)"]
]}
